# System: SARS-CoV-2 replicon
# Experiment: microbe, parasite or virus in culture
# Assay type: cell-based
# Condition notes: read-out: Replicon EC50
Rule: measured EC50 below 100 nM gets class 1; anything equal to or greater than 100 nM gets class 0.

A selection of reference data follows.
INSERT INTO assay_data (molecule, target, class) VALUES
  ('CC(C)(C)[C@H](NS(=O)(=O)c1ccccc1)C(=O)N1C[C@H]2[C@@H]([C@H]1C(=O)N[C@H](C#N)C[C@@H]1CCNC1=O)C2(C)C', 'SARS-CoV-2 replicon', 'class 1'),
  ('CC(C)(C)[C@H](NS(=O)(=O)c1ccsc1)C(=O)N1C[C@H]2[C@@H]([C@H]1C(=O)N[C@H](C#N)C[C@@H]1CCNC1=O)C2(C)C', 'SARS-CoV-2 replicon', 'class 0'),
  ('CC(C)(C)[C@H](NC(=O)C(F)(F)Cl)C(=O)N1C[C@H]2[C@@H]([C@H]1C(=O)N[C@H](C#N)C[C@@H]1CCNC1=O)C2(C)C', 'SARS-CoV-2 replicon', 'class 1');

Task: Please indicate whether the reported EC50 of CC(C)(C)[C@H](NC(=O)C(F)(Cl)C(F)(F)F)C(=O)N1C[C@H]2[C@@H]([C@H]1C(=O)N[C@H](C#N)C[C@@H]1CCNC1=O)C2(C)C (stereo partly shown) is strictly below 100 nM.
Result: class 1

Task: Determine whether this molecule shows EC50 lower than 100 nM (ties excluded): `CC(C)(C)[C@H](NS(=O)(=O)c1cc2ccccc2s1)C(=O)N1C[C@H]2[C@@H]([C@H]1C(=O)N[C@H](C#N)C[C@@H]1CCNC1=O)C2(C)C`
Result: class 1

Task: Say whether its EC50 is strictly beneath 100 nM. Entry: `CC(C)(C)[C@H](NC(=S)NC1CC1)C(=O)N1C[C@H]2[C@@H]([C@H]1C(=O)N[C@H](C#N)C[C@@H]1CCNC1=O)C2(C)C`
Result: class 0

Task: Quick check: EC50 of `CC(C)(C)[C@H](NS(=O)(=O)c1cccc(F)c1)C(=O)N1C[C@H]2[C@@H]([C@H]1C(=O)N[C@H](C#N)C[C@@H]1CCNC1=O)C2(C)C` under 100 nM?
Result: class 0

Task: Please determine if `CC(C)(C)[C@H](NC(=O)[C@@H](NC(=O)c1cnccn1)C1CCCCC1)C(=O)N1C[C@H]2[C@@H]([C@H]1C(=O)N[C@H](C#N)C[C@@H]1CCNC1=O)C2(C)C` is below 100 nM in terms of EC50.
Result: class 0

Task: In plain terms, does `CC(C)(C)[C@H](NS(=O)(=O)c1ccc2c(c1)CCO2)C(=O)N1C[C@H]2[C@@H]([C@H]1C(=O)N[C@H](C#N)C[C@@H]1CCNC1=O)C2(C)C` come in under 100 nM for EC50?
Result: class 1

Task: For this molecule, is EC50 lower than 100 nM? `CC(C)c1cc(C(C)C)c(S(=O)(=O)N[C@H](C(=O)N2C[C@H]3[C@@H]([C@H]2C(=O)N[C@H](C#N)C[C@@H]2CCNC2=O)C3(C)C)C(C)(C)C)c(C(C)C)c1`
Result: class 0
